Tested on: human monocyte-derived macrophages (M0)
Experiment: cell shape (eccentricity) Z-score vs DMSO control; higher = more elongated, M2-like morphology
Conditions: 20 µM; 24 h; macrophage state: M0 (M-CSF)
Whole data set: some 3,800 compounds, median “cell shape (eccentricity) Z-score vs DMSO control” near 1.1, cut for the lowest 2% near -4.7. For the sample, the lowest values were picked, then their nearest neighbours and some compounds at random.
REPORTED_METRIC: cell shape (Z-score)
API doc: respond with a numeric literal and nothing else, no unit.

For orientation, consider the following solved cases.
Request: Requested field: cell shape (Z-score). Item: CC(C)(C)CC(C)(C)c1ccc(OCCOCC[N+](C)(C)Cc2ccccc2)cc1
Result: -0.216

Request: Requested field: cell shape (Z-score). Item: CC(=O)O[C@H]1[C@H](Oc2ccccc2COC(=O)C2(O)C=CCCC2=O)O[C@H](CO)[C@@H](O)[C@@H]1O (some centres not stated)
Result: 1.32

Request: Requested field: cell shape (Z-score). Item: c1ccc2cc(C3=NCCN3)ncc2c1
Result: -4.69

Request: Requested field: cell shape (Z-score). Item: CC(=O)O[C@@H]1CC2C(C)(C)C(=O)C3OC3[C@]2(C)C2CC[C@@]3(C)[C@H](c4ccoc4)OC(=O)C4OC43[C@@]21C (some centres not stated)
Result: -1.17

New cases:
Request: Requested field: cell shape (Z-score). Item: CC(=O)OC1C(=O)C2(C)C(O)CC3OCC3(OC(C)=O)C2C(OC(=O)c2ccccc2)C2(O)CC(OC(=O)C(O)C(NC(=O)c3ccccc3)c3ccccc3)C(C)=C1C2(C)C (configuration not stated)
Result: -3.69

Request: Requested field: cell shape (Z-score). Item: CCC(C)n1ncn(-c2ccc(N3CCN(c4ccc(OC[C@H]5CO[C@](Cn6cncn6)(c6ccc(Cl)cc6Cl)O5)cc4)CC3)cc2)c1=O (some centres not stated)
Result: 0.541

Request: Requested field: cell shape (Z-score). Item: Nc1cc(-c2ccncc2)c[nH]c1=O
Result: 0.0533

Request: Requested field: cell shape (Z-score). Item: CCCCCCCCC(=O)NCc1cc(OC)c(O)cc1I
Result: 0.93

Request: Requested field: cell shape (Z-score). Item: CC1(CO)CC(O)CC2(C)C3=C(CCC12)C(=O)OC3 (configuration not stated)
Result: -1.57

Request: Requested field: cell shape (Z-score). Item: CC(C)N1C[C@@H](C)[C@H](CN(C)Cc2ccc(Oc3ccccc3)cc2)Oc2c(NC(=O)c3ccncc3)cccc2C1=O
Result: 2.27

Request: Requested field: cell shape (Z-score). Item: COCc1c(C(C)C)nc(C(C)C)c(/C=C/[C@@H](O)C[C@@H](O)CC(=O)O)c1-c1ccc(F)cc1
Result: 10.1

Request: Requested field: cell shape (Z-score). Item: COC(=O)Nc1nc2cc(Sc3ccccc3)ccc2[nH]1
Result: -2.59

Request: Requested field: cell shape (Z-score). Item: Cc1cc(C(C)(C)CC(C)(C)C)ccc1OCCOCC[N+](C)(C)Cc1ccccc1
Result: -4.7

Request: Requested field: cell shape (Z-score). Item: COc1ccc(/C=C/C(=O)c2cc(O)ccc2O)cc1
Result: 2.34

Request: Requested field: cell shape (Z-score). Item: COc1ccc(/C=C/C(=O)c2ccc(O)cc2O)cc1
Result: -5.34
